Test system: Wolbachia pipientis
experimental_details: Anti-Wolbachia Cell-Based Screen
Type: functional
Set-up: scale not given: in the data most compounds retested in dose-response had high values
experimental_conditions: 5 µM
The campaign covered roughly 48,000 compounds. About 13,000 (27%) showed an effect of 50% or more. The list shows a part of the results.
measured_metric: Percent Effect (%)
All answers are understood in %, so give the number only.

structure_smiles: CCS(=O)(=O)Nc1cnn(Cc2cccc(C)c2)c1
readout_unit: %
Percent Effect: 89.42
--
structure_smiles: COc1c(CNCc2ccccc2Cn2cccn2)c(C)nn1C
readout_unit: %
Percent Effect: 10.98
--
structure_smiles: COc1c(CNCc2cccc(Cn3cccn3)c2)c(C)nn1C
readout_unit: %
Percent Effect: 134.9
--
structure_smiles: COc1c(CNCc2cccc(Cn3ccnc3C)c2)c(C)nn1C.Cl
readout_unit: %
Percent Effect: 162.7
--
structure_smiles: COc1c(CNCc2ccccc2Cn2cncn2)c(C)nn1C
readout_unit: %
Percent Effect: -0.9882

# context switch: different compound, same Percent Effect
stdin: # return recorded Percent Effect for input Cc1cccc(Cn2ccc(NS(C)(=O)=O)n2)c1
stdout: -2.498

---

System: Wolbachia pipientis
experimental_details: Anti-Wolbachia Cell-Based Screen
Type: functional
Parameters: scale not given: in the data most compounds retested in dose-response had high values
experimental_conditions: 5 µM
Screen size: about 48,000 compounds; about 13,000 (27%) showed an effect of 50% or more. This is one part of the list.
measured_metric: Percent Effect (%)
All answers are understood in %, so give the number only.

Some compounds with known Percent Effect results, for comparison:
compound: CN(Cc1cccnc1)[C@@H]1CN(Cc2nccn2C)[C@@H]2CCCO[C@H]12.O=C(O)C(F)(F)F.O=C(O)C(F)(F)F.O=C(O)C(F)(F)F.O=C(O)C(F)(F)F
assayed_target: Wolbachia pipientis
measured_metric: Percent Effect
measured_number: 107.5
--
compound: O[C@H]1CN(c2nc(-c3ccccc3)no2)C[C@@H]1N1CCOCC1
assayed_target: Wolbachia pipientis
measured_metric: Percent Effect
measured_number: 10.35

stdin: Provide Wolbachia pipientis Percent Effect reading for CN(C)C(=O)CO[C@@H]1CC[C@H]2[C@H]1OCCN2C(=O)C1CCOCC1 .
stdout: 4.998

stdin: Provide Wolbachia pipientis Percent Effect reading for O=C(c1ccccc1F)N(CCCO)S(=O)(=O)c1cccs1 .
stdout: 2.629

stdin: Provide Wolbachia pipientis Percent Effect reading for Cn1ccnc1-c1cn(CCc2nnc(N)s2)nn1 .
stdout: 90.14

stdin: Provide Wolbachia pipientis Percent Effect reading for CCC(=O)NCC(Cc1cccc(F)c1)n1cccc1 (configuration not stated) .
stdout: -1.872

stdin: Provide Wolbachia pipientis Percent Effect reading for COc1ccccc1[C@@H]1CN(Cc2ccc3nsnc3c2)C[C@H]1C(=O)O .
stdout: -7.505

stdin: Provide Wolbachia pipientis Percent Effect reading for O=C(NCCN1C(=O)CCC1=O)c1nc2ccccc2c(=O)[nH]1 .
stdout: 1.599

stdin: Provide Wolbachia pipientis Percent Effect reading for CCC(O)CN1CCN(C(=O)c2ccn(-c3cccc(F)c3)n2)CC1 (configuration not stated) .
stdout: -17.79

stdin: Provide Wolbachia pipientis Percent Effect reading for C=C(C)CN1C(=O)CC(Cc2ccc(F)cc2)C1=O (configuration not stated) .
stdout: -35.72

stdin: Provide Wolbachia pipientis Percent Effect reading for CNC(=O)C(C)CN(C)C(=O)Nc1ccc(Cl)cc1-n1cccc1 (configuration not stated) .
stdout: 0.2413

stdin: Provide Wolbachia pipientis Percent Effect reading for CN(C(=O)C1CCCCC1)[C@@H]1CCC[C@@H](N2CCOCC2)[C@@H]1O .
stdout: 5.741

stdin: Provide Wolbachia pipientis Percent Effect reading for Cc1cccc2c1OCCCC2NCc1nccn1Cc1ccccc1 (configuration not stated) .
stdout: -13.33

stdin: Provide Wolbachia pipientis Percent Effect reading for Cn1cccc1-c1cc(C(=O)NCCCc2csc(N)n2)[nH]n1 .
stdout: -5.944

stdin: Provide Wolbachia pipientis Percent Effect reading for CCCSc1nc(O)c(CC)c(=O)n1-c1ccccc1 .
stdout: -0.2298

stdin: Provide Wolbachia pipientis Percent Effect reading for CN(C(=O)C1CCOCC1)[C@@H]1CCC[C@@H](N2CCOCC2)[C@@H]1O .
stdout: 124.2

stdin: Provide Wolbachia pipientis Percent Effect reading for CCc1nc(CCn2cc(-c3nccn3C)nn2)no1 .
stdout: -10.63

stdin: Provide Wolbachia pipientis Percent Effect reading for Cc1ccccc1C1CCN(CCn2cc(-c3nccn3C)nn2)C1 (configuration not stated) .
stdout: -7.795

stdin: Provide Wolbachia pipientis Percent Effect reading for CCC(O)Cn1nc(-c2ccc(C(=O)O)cc2)cc1-c1cccc(F)c1 (configuration not stated) .
stdout: 112

stdin: Provide Wolbachia pipientis Percent Effect reading for CN([C@@H]1CC[C@@H](N2CCOCC2)[C@@H]1O)S(=O)(=O)c1ccccc1 .
stdout: 122.9

stdin: Provide Wolbachia pipientis Percent Effect reading for Cc1cc(-n2nc(C)nc2-c2cn(CCN)nn2)ccn1 .
stdout: -45.52

stdin: Provide Wolbachia pipientis Percent Effect reading for Cn1ccnc1-c1cn(CCCc2nnc(N)s2)nn1 .
stdout: 101

Entry source: ChEMBL document CHEMBL3988442
